molecular target: T1, hPRLR.mmh (soluble monomeric human PRLR) (Homo sapiens, UniProt P16471); test: Surface plasmon resonance (Biacore T200), mAb-capture format; format: binding; settings: 25° C., antibody-capture format, analyte hPRLR.mmh
T1 construct: soluble monomeric (hPRLR.mmh); mmh (myc-myc-hexahistidine)
T1 sequence (P16471 with tags, fused parts or gaps): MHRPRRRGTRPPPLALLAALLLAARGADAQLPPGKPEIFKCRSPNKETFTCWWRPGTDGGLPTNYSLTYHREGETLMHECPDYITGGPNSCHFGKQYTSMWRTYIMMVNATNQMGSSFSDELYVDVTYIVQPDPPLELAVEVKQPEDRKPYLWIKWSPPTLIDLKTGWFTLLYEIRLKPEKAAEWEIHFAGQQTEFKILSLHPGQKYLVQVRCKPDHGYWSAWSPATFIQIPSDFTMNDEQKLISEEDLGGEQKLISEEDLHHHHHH
T½ for assorted molecules
Express your answer in min, writing the number without its unit.

Task item: Look up T½: H1H6953N: human IgG1 Fc form of H1M6953N; anti-PRLR; HCVR/LCVR SEQ ID NOs 274/282 (antibody, V domains shown, human IgG1 Fc) VH: EVQLLESGGGLVQPGGTLRLSCAASGFTFSAYAMSWVRQAPGKGLEWVSSINVRAGDTYYADSVKGRFTISRDNSKNTLFLLMNSLRAEDTAAYYCAKARYSSNWGFDFWGQGTLVTVSS VL: DIVMTQSPDSLTVSLGARTTINCQSSQTILHSSNNHNYLAWYQQKPGLPPKLLIYWSSTRESGVPDRFSGSGSGTDFTLTISSLQAEDVAIYYCQQYSNTPYTFGQGTKLEIN
Reply: 54.5

Task item: Look up T½: H1H6782P: anti-PRLR antibody, human IgG1 Fc; HCVR/LCVR SEQ ID NOs 66/74; non-blocking (antibody, V domains shown, human IgG1 Fc) VH: EVQLVESGGGLVQPGRSLRLSCAASGFTFDDYAMHWVRQAPGKGLEWVSGIIWNSGHIGYGDSVKGRFTISRDNAKKSLYLQMNSLRAEDTALYYCARDSGRYQSYFDYWGQGTLVTVSS VL: DIQMTQSPSTLSASVGDRVTITCRASHIISSWLAWYQQKPGKAPKVLIFKASSLESGVPSRFSGSGSGTEFTLTISSLQPDDFATYYCQQYNTYSRTFGQGTKVEIK
Reply: 47

Task item: Look up T½: H1H6790P: anti-PRLR antibody, human IgG1 Fc; HCVR/LCVR SEQ ID NOs 114/122 (antibody, V domains shown, human IgG1 Fc) VH: EVQLVESGGGLVQPGGSLRLSCAASGFTFSSYAMTWVRQAPGKGLEWVSAITGSVGNTYYADSVKGRFTISRDNSKNTLYLQMNSLGAEDTAEYYCAKGAGMTTNWYLDLWGRGTLVTVSS VL: DIVMTQSPDSLAVSLGARATINCKSSQSVLYSSNNQNYLTWYQQKPGQPPKLLIKWASTRESGVPDRFSGSGSGTDFTLTISSLQAEDVAVYYCQQYASSPYTFGQGTKLEIK
Reply: 14

Task item: Look up T½: H1H6958N2: human IgG1 Fc form of H2M6958N2; anti-PRLR, receptor blocking; HCVR/LCVR SEQ ID NOs 290/298 (antibody, V domains shown, human IgG1 Fc) VH: QVQLVESGGGVVQPGRSLRLSCGASGFTFRNYGMQWVRQGPGKGLEWVTLISFDGNDKYYADSVKGRFTISRDNSKNTLFLQMNSLRTEDTAVYYCARGGDFDYWGQGTLVTVSS VL: DIQMTQSPSSLSASVGDRVTITCRASQDIRKDLGWYQQKPGKAPKRLIYAASSLHSGVPSRFSGSGSGTEFTLTISSLQPEDFATYYCLQHNSYPMYTFGQGTKLEIK
Reply: 42.5
